# tested system: HiBit-BRG1 fusion protein (Homo sapiens)
# Construct: expressed in transfected cells
# test summary: HiBiT-BRG1 cell-based degradation assay (Nano-Glo HiBiT Lytic Detection, 24 h)
# assay conditions: HeLa, HeLa cells expressing HiBit-BRG1 and LgBit, top dose 30 μM, read-out: BRG1 HiBit Degradation Maximum measured
readout name: Dmax

* CS(=O)(=O)n1ccc(C(=O)N[C@@H](CCCCNC(=O)CCCCCCCOc2cccc3c2C(=O)N(C2CCC(=O)NC2=O)C3=O)C(=O)Nc2nc(-c3ccccc3)cs2)c1 (stereo partly drawn) | < 50%
* CS(=O)(=O)n1ccc(C(=O)N[C@@H](CCCCNC(=O)CCOCCOCCNc2ccc3c(c2)C(=O)N(C2CCC(=O)NC2=O)C3=O)C(=O)Nc2nc(-c3ccccc3)cs2)c1 (stereo partly drawn) | < 50%
* Cc1ncsc1-c1ccc(CNC(=O)[C@@H]2C[C@@H](O)CN2C(=O)[C@@H](NC(=O)CCCCCCCCC(=O)NCCOc2cc(-c3cccc(-c4csc(NC(=O)CNC(=O)c5ccn(S(C)(=O)=O)c5)n4)c3)ccn2)C(C)(C)C)cc1 | > 75%
* CS(=O)(=O)n1ccc(C(=O)NCC(=O)Nc2nc(C3CCCN(C(=O)CCCCOc4cccc5c4C(=O)N(C4CCC(=O)NC4=O)C5=O)C3)cs2)c1 (stereo not drawn) | < 50%
* Cc1ncsc1-c1ccc(CNC(=O)[C@@H]2C[C@@H](O)CN2C(=O)[C@@H](NC(=O)CCCCCCCCCCC(=O)NCc2ccc(COC[C@H](NC(=O)c3ccn(S(C)(=O)=O)c3)C(=O)Nc3nc(-c4ccccc4)cs3)cc2)C(C)(C)C)cc1 | < 50%
* Cc1c(C(=O)NCC(=O)Nc2nc(-c3cccc(-c4ccnc(N(C)CC(=O)N5CCC(C6CCN(C(=O)COc7cccc8c7C(=O)N(C7CCC(=O)NC7=O)C8=O)CC6)CC5)c4)c3)cs2)cn(S(C)(=O)=O)c1C (stereo not drawn) | < 50%
* CS(=O)(=O)n1ccc(C(=O)N[C@@H](COCc2ccc(CNC(=O)C3CCN(CCOc4ccc5c(c4)C(=O)N(C4CCC(=O)NC4=O)C5=O)CC3)cc2)C(=O)Nc2nc(-c3ccccc3)cs2)c1 (stereo partly drawn) | > 75%
* CS(=O)(=O)n1ccc(C(=O)N[C@@H](COCc2ccc(C(=O)N3CCN(CCCC#Cc4ccc5c(c4)C(=O)N(C4CCC(=O)NC4=O)C5=O)CC3)cc2)C(=O)Nc2nc(-c3ccccc3)cs2)c1.O=CO (stereo partly drawn) | < 50%
* CS(=O)(=O)n1ccc(C(=O)N[C@@H](COCc2ccc(C(=O)NCCC3CCN(c4ccc5c(c4)C(=O)N(C4CCC(=O)NC4=O)C5=O)CC3)cc2)C(=O)Nc2nc(-c3ccccc3)cs2)c1 (stereo partly drawn) | > 75%

---

# tested system: HiBit-BRG1 fusion protein (Homo sapiens, UniProt P51532)
# Construct: expressed in transfected cells
# Sequence (P51532 whole entry, the tested form may be a part): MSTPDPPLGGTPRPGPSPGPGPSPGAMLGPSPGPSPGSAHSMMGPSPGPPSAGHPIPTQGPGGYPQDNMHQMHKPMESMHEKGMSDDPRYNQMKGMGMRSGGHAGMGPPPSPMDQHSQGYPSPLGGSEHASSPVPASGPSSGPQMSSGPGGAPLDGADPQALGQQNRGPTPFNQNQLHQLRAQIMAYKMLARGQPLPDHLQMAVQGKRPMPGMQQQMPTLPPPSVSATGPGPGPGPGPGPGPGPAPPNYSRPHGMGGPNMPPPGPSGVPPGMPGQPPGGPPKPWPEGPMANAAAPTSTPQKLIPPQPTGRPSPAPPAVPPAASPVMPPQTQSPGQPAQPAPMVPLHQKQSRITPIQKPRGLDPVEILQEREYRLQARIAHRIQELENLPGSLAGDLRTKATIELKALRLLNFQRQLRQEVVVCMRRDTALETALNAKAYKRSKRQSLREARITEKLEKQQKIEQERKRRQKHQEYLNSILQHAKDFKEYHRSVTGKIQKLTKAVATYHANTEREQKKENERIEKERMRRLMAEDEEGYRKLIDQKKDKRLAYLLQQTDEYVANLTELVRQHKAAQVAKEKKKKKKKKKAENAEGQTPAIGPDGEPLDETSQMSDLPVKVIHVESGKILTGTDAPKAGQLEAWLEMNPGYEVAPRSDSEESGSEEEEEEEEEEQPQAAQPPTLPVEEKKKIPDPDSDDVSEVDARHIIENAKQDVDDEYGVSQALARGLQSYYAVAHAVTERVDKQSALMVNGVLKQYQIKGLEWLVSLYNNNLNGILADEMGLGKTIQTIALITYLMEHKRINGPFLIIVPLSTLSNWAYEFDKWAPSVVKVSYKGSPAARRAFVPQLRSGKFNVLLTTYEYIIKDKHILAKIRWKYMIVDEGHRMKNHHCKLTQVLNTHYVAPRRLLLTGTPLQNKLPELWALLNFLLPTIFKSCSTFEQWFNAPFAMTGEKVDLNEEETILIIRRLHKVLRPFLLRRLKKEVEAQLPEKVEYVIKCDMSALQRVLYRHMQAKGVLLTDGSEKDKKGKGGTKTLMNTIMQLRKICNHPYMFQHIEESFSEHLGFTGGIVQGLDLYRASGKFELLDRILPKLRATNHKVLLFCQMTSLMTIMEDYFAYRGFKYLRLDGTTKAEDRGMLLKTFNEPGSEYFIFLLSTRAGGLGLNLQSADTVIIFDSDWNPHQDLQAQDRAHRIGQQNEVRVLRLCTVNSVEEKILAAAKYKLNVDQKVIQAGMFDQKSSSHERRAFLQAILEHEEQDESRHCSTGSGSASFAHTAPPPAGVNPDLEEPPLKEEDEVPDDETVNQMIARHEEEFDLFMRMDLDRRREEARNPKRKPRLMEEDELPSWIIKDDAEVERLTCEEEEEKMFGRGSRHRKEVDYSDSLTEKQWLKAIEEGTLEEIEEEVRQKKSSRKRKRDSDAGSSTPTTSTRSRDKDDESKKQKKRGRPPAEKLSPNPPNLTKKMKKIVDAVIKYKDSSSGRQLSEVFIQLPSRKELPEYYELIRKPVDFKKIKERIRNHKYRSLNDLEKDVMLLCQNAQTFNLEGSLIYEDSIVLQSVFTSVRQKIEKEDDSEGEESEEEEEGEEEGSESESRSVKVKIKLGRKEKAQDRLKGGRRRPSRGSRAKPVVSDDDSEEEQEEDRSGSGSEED
# test summary: HiBiT-BRG1 cell-based degradation assay (Nano-Glo HiBiT Lytic Detection, 24 h)
# assay conditions: HeLa cells expressing HiBit-BRG1 and LgBit, read-out: BRG1 HiBit Degradation IC50
Parameter DC50: see the listing below.
readout name: DC50

• CS(=O)(=O)n1ccc(C(=O)N[C@@H](COCc2ccc(CNC(=O)CCCCCCOc3cccc4c3C(=O)N(C3CCC(=O)NC3=O)C4=O)cc2)C(=O)Nc2nc(-c3ccccc3)cs2)c1 (stereo partly drawn) [Compound 179] = > 10 µM
• CS(=O)(=O)n1ccc(C(=O)N[C@@H](CCCCNC(=O)CCOCCOCCOc2cccc3c2C(=O)N(C2CCC(=O)NC2=O)C3=O)C(=O)Nc2nc(-c3ccccc3)cs2)c1 (stereo partly drawn) [Compound 288] = > 10 µM
• CS(=O)(=O)n1ccc(C(=O)N[C@@H](COCc2ccc(C(=O)NCCCCCCNc3ccc4c(c3)C(=O)N(C3CCC(=O)NC3=O)C4=O)cc2)C(=O)Nc2nc(-c3ccccc3)cs2)c1 (stereo partly drawn) [Compound 201] = < 0.1 µM

---

# tested system: HiBit-BRM fusion protein (Homo sapiens, UniProt P51531)
# Construct: expressed in transfected cells
# Sequence (P51531 whole entry, the tested form may be a part): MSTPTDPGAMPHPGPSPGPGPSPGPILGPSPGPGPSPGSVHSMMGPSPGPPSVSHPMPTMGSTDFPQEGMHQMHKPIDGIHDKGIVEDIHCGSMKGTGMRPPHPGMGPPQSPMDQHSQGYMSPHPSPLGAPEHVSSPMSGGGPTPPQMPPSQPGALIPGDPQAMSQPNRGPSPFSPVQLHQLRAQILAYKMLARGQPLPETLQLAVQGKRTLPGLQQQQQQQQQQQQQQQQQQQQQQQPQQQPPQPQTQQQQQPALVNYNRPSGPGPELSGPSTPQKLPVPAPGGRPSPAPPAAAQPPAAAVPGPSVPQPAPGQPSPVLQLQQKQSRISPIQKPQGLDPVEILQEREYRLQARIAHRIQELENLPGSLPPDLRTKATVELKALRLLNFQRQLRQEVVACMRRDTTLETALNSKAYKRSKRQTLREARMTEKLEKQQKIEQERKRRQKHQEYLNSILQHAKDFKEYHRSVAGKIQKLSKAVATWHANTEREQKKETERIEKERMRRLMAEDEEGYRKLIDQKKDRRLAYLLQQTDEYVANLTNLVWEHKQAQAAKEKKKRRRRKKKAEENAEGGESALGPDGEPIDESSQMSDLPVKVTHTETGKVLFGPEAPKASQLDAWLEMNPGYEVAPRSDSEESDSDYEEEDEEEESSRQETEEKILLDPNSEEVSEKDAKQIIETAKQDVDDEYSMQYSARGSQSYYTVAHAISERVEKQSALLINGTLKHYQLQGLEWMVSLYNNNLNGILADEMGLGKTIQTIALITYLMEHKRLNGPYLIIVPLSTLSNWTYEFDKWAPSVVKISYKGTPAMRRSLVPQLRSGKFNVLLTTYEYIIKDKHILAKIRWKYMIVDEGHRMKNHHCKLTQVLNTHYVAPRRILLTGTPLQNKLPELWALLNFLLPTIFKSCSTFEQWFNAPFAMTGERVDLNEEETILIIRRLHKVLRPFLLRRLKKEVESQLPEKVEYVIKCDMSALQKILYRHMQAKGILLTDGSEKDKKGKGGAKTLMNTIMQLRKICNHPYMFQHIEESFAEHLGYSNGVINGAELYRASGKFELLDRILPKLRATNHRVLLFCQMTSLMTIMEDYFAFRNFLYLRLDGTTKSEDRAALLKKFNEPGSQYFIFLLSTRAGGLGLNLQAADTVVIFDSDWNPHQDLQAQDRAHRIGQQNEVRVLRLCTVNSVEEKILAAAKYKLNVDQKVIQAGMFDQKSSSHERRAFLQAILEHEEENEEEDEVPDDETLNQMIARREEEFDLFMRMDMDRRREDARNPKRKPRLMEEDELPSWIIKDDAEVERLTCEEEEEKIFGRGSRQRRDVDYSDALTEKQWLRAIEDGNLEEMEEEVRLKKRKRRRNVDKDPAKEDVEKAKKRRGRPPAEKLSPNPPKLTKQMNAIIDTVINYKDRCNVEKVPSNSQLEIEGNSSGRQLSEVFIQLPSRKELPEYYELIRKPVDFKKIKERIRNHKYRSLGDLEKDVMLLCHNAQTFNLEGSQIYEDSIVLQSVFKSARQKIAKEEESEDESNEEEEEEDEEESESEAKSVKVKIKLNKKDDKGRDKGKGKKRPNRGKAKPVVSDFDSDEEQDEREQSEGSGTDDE
# test summary: HiBiT-BRM cell-based degradation assay (Nano-Glo HiBiT Lytic Detection, 24 h)
# assay conditions: HeLa cells expressing HiBiT-BRM, read-out: BRM HiBit Degradation IC50
readout name: DC50

* CS(=O)(=O)n1ccc(C(=O)N[C@@H](COCc2ccc(CNC(=O)CCOCCOCCOc3ccc4c(c3)C(=O)N(C3CCC(=O)NC3=O)C4=O)cc2)C(=O)Nc2nc(-c3ccccc3)cs2)c1 (some centres unmarked) | 0.1 to 1 µM
* CN(CCNC(=O)C1(c2cc(-c3cccc(-c4csc(NC(=O)CNC(=O)c5ccn(S(C)(=O)=O)c5)n4)c3)ccn2)CC1)CCOCCOc1cccc2c1C(=O)N(C1CCC(=O)NC1=O)C2=O (centres unmarked) | > 10 µM
* Cc1ncsc1-c1ccc(CNC(=O)[C@@H]2C[C@@H](O)CN2C(=O)[C@@H](NC(=O)CCC(=O)NCc2cccc(-c3cccc(-c4csc(NC(=O)CNC(=O)c5ccn(S(C)(=O)=O)c5)n4)c3)c2)C(C)(C)C)cc1 | > 10 µM
* Cc1ncsc1-c1ccc(CNC(=O)[C@@H]2C[C@@H](O)CN2C(=O)[C@@H](NC(=O)CCCCCCCNC(=O)CCCOCC[C@H](NC(=O)c2ccn(S(C)(=O)=O)c2)C(=O)Nc2nc(-c3ccccc3)cs2)C(C)(C)C)cc1 | > 10 µM
* Cc1ncsc1-c1ccc(CNC(=O)[C@@H]2C[C@@H](O)CN2C(=O)[C@@H](NC(=O)CCCCCCC(=O)NCc2ccc(COC[C@H](NC(=O)c3ccn(S(C)(=O)=O)c3)C(=O)Nc3nc(-c4ccccc4)cs3)cc2)C(C)(C)C)cc1 | > 10 µM

---

# tested system: HiBit-BRG1 fusion protein (Homo sapiens, UniProt P51532)
# Construct: expressed in transfected cells
# test summary: HiBiT-BRG1 cell-based degradation assay (Nano-Glo HiBiT Lytic Detection, 24 h)
# assay conditions: HeLa cells expressing HiBit-BRG1 and LgBit, read-out: BRG1 HiBit Degradation IC50
readout name: DC50

- Cc1ncsc1-c1ccc(CNC(=O)[C@@H]2C[C@@H](O)CN2C(=O)[C@@H](NC(=O)COCCOCCOCCOCC(=O)NCc2cccc(-c3cccc(-c4csc(NC(=O)CNC(=O)c5ccn(S(C)(=O)=O)c5)n4)c3)c2)C(C)(C)C)cc1: 1000 to 10000 nM
- CS(=O)(=O)n1ccc(C(=O)NCC(=O)Nc2nc(-c3cccc(-c4cccc(CNC(=O)CCCCCCCCCCNc5cccc6c5C(=O)N(C5CCC(=O)NC5=O)C6=O)c4)c3)cs2)c1 (stereo not drawn): 100 to 1000 nM
- Cc1ncsc1-c1ccc(CNC(=O)[C@@H]2C[C@@H](O)CN2C(=O)[C@@H](NC(=O)CCCCCCCCCCC(=O)NCc2cccc(-c3cccc(-c4csc(NC(=O)CNC(=O)c5ccn(S(C)(=O)=O)c5)n4)c3)c2)C(C)(C)C)cc1: 100 to 1000 nM
- CS(=O)(=O)n1ccc(C(=O)N[C@@H](CCOCCCC(=O)N2CCC(CCCCN3CCN(c4ccc5c(c4)C(=O)N(C4CCC(=O)NC4=O)C5=O)CC3)CC2)C(=O)Nc2nc(-c3ccccc3)cs2)c1 (stereo partly drawn): > 10000 nM
- CS(=O)(=O)n1ccc(C(=O)NCC(=O)Nc2nc(-c3cccc(-c4ccn(CC(=O)NCCCCCNc5cccc6c5C(=O)N(C5CCC(=O)NC5=O)C6=O)n4)c3)cs2)c1 (stereo not drawn): > 10000 nM
- Cc1ncsc1-c1ccc(CNC(=O)[C@@H]2C[C@@H](O)CN2C(=O)[C@@H](NC(=O)CCCCCCC(=O)NCc2cccc(-c3cccc(-c4csc(NC(=O)CNC(=O)c5ccn(S(C)(=O)=O)c5)n4)c3)c2)C(C)(C)C)cc1: 100 to 1000 nM
- CS(=O)(=O)n1ccc(C(=O)NCC(=O)Nc2nc(-c3cccc(-c4ccnc(OCCNC(=O)C5CC5CNC(=O)COc5cccc6c5C(=O)N(C5CCC(=O)NC5=O)C6=O)c4)c3)cs2)c1 (stereo not drawn): > 10000 nM
- Cc1ncsc1-c1ccc(CNC(=O)[C@@H]2C[C@@H](O)CN2C(=O)[C@@H](NC(=O)COCC(=O)N2CCN(c3cc(-c4cccc(-c5csc(NC(=O)CNC(=O)c6ccn(S(C)(=O)=O)c6)n5)c4)ccn3)CC2)C(C)(C)C)cc1: > 10000 nM
- CS(=O)(=O)n1ccc(C(=O)N[C@@H](CCCCNC(=O)CCOCCOCCOc2ccc3c(c2)C(=O)N(C2CCC(=O)NC2=O)C3=O)C(=O)Nc2nc(-c3ccccc3)cs2)c1 (stereo partly drawn): > 10000 nM

---

# tested system: HiBit-BRG1 fusion protein (Homo sapiens)
# Construct: expressed in transfected cells
# test summary: HiBiT-BRG1 cell-based degradation assay (Nano-Glo HiBiT Lytic Detection, 24 h)
# assay conditions: HeLa cells expressing HiBit-BRG1 and LgBit, read-out: BRG1 HiBit Degradation IC50
Counter-ions that a name gives are not always drawn.
readout name: DC50

• CS(=O)(=O)n1ccc(C(=O)N[C@@H](COCc2ccc(C(=O)N3CCC(CCCCN4CCN(c5ccc6c(c5)C(=O)N(C5CCC(=O)NC5=O)C6=O)CC4)CC3)cc2)C(=O)Nc2nc(-c3ccccc3)cs2)c1 (some centres unmarked) [Compound 195, formate] = > 10000 nM
• CS(=O)(=O)n1ccc(C(=O)N[C@@H](COCCCC(=O)NCCCCNc2ccc3c(c2)C(=O)N(C2CCC(=O)NC2=O)C3=O)C(=O)Nc2nc(-c3ccccc3)cs2)c1 (some centres unmarked) = > 10000 nM
• CS(=O)(=O)n1ccc(C(=O)NCC(=O)Nc2nc(-c3cccc(-c4cccc(CNC(=O)CCOCCOCCOc5ccc6c(c5)C(=O)N(C5CCC(=O)NC5=O)C6=O)c4)c3)cs2)c1 (centres unmarked) = 100 to 1000 nM
• Cc1ncsc1-c1ccc(CNC(=O)[C@@H]2C[C@@H](O)CN2C(=O)[C@@H](NC(=O)CCOCCOCCC(=O)NCc2cccc(-c3cccc(-c4csc(NC(=O)CNC(=O)c5ccn(S(C)(=O)=O)c5)n4)c3)c2)C(C)(C)C)cc1 = 100 to 1000 nM
• CS(=O)(=O)n1ccc(C(=O)N[C@@H](CCOCCCC(=O)N2CCN(CC3CN(c4ccc5c(c4)C(=O)N(C4CCC(=O)NC4=O)C5=O)C3)CC2)C(=O)Nc2nc(-c3ccccc3)cs2)c1 (some centres unmarked) = > 10000 nM
